# assay-system: recombinant human NAAA protein (Homo sapiens)
# Construct: purchased R&D Systems (Shanghai, China)
# protocol-details: Fluorometric NAAA activity assay (PAMCA hydrolysis)
# Assay type: biochemical
# reported-conditions: recombinant human NAAA, PAMCA 25 µM, pH 4.5, 37 °C 30 min; read-out: IC50, NAAA inhibition
quantity-measured: IC50 (µM)

• c1cc2c(cc1[C@H]1OC[C@H]3[C@@H]1CO[C@@H]3c1ccc3c(c1)OCO3)OCO2 = 30.2
• COc1ccc2cc1Oc1ccc(cc1)CC1c3cc(c(OC)cc3CCN1C)Oc1c(OC)c(OC)cc3c1C(C2)N(C)CC3 (stereo not shown) = 52.9
• O=c1cc(-c2ccc(O)c(-c3c(O)cc(O)c4c(=O)cc(-c5ccc(O)cc5)oc34)c2)oc2cc(O)cc(O)c12 = 37.8
• COc1cc(C[C@H](C)[C@H](C)Cc2ccc3c(c2)OCO3)ccc1O = 23.8

###

# assay-system: recombinant human NAAA protein (Homo sapiens, UniProt Q02083)
# Construct: purchased R&D Systems (Shanghai, China)
# Sequence (Q02083 29-359): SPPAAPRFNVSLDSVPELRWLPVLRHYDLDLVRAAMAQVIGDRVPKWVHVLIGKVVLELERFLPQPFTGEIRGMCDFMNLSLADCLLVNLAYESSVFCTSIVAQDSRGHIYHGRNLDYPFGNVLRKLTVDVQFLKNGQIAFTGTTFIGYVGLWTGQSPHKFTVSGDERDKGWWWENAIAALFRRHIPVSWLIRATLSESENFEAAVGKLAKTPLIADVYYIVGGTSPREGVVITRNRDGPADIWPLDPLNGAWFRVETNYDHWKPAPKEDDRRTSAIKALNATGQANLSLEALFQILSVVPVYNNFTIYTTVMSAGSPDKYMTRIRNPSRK
# protocol-details: Fluorometric NAAA activity assay (PAMCA hydrolysis)
# Assay type: biochemical
quantity-measured: IC50

* C/C=C/C#CC#C/C=C/c1ccco1 | 2810 nM
